Molecular target: hM3 receptor (CHO cells) (Homo sapiens, UniProt P20309)
Sequence (P20309 whole entry): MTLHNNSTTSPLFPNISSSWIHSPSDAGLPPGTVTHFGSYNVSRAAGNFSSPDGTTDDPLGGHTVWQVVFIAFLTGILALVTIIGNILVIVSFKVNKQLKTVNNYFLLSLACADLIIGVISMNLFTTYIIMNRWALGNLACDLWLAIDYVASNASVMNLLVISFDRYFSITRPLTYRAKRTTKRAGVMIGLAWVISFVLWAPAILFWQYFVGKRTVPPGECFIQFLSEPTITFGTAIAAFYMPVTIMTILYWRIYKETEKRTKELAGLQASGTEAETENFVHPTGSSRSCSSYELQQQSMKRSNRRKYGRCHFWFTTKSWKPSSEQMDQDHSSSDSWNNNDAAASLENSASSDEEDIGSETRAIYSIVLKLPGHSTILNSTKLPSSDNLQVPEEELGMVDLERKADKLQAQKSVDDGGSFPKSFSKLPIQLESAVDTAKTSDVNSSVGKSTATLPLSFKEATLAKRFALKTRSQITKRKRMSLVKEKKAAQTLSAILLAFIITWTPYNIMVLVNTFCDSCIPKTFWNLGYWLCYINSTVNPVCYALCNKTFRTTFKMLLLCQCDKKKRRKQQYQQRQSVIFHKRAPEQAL
Test: Blockade of agonist-mediated calcium release via FLIPR assay
Conditions: CHO cells stably expressing the hM3 receptor, oxotremorine
measure: Ki

Look up Ki for this molecule: CNCC(=O)NCCCCCN1CC[C@@H](C(C(N)=O)(c2ccccc2)c2ccccc2)C1 < 100 nM

###

Target: hM2 receptor (CHO-K1 cells) (Homo sapiens)
Construct: expressed in transfected cells; host or cells: CHO-K1 cells
Sequence (P08172 whole entry): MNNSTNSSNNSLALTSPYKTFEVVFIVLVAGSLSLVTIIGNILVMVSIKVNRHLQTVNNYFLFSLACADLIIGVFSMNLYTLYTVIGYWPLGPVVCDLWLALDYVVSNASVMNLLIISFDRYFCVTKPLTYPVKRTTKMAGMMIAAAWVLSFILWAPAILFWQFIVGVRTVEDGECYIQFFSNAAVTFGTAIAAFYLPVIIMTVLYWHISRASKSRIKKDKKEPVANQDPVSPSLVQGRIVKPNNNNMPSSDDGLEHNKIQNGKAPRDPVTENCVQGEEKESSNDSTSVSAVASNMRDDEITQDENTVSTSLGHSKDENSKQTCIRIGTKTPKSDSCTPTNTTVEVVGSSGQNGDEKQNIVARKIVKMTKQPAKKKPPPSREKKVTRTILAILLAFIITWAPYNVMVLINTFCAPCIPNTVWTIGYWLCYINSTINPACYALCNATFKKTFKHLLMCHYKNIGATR
Assay: Blockade of agonist-mediated [35S]GTPγS binding
Type: biochemical
Conditions: CHO-K1 cells expressing the hM2 receptor; read-out: Ki value for blockade of oxotremorine-stimulated [35S]GTPγS binding
measure: Ki

Request the reported Ki associated with CNCC(=O)NCCCCCN1CC[C@@H](C(C(N)=O)(c2ccccc2)c2ccccc2)C1 < 100 nM
